Below, each entry is listed alongside its reported mass density.
Settings: 288.15 K; 101.33 kPa; Liquid; Vibrating tube method
Reply with just the number (in kg/m3).

>  <STRUCTURE>
CCCCCC

>  <QUANTITATIVE READOUT>
664.13

$$$$

Bench note: what mass density did COCCOC show?
872.06

Bench note: what mass density did C1CCCCC1 show?
783.29

Bench note: what mass density did CCCCCCCC show?
706.6

Bench note: what mass density did CCCCCCCCCCCC show?
752.44

---

Conditions: 298.15 K; 101.33 kPa; Liquid; Vibrating tube method
MEASUREMENT NAME: mass density (kg/m3)
Reply with just the number (in kg/m3).

Field: example entries. Status: answers known.
>  <STRUCTURE>
C1CCCCC1

>  <mass density, kg/m3>
773.86

$$$$
>  <STRUCTURE>
CCCCCC

>  <mass density, kg/m3>
655.14

$$$$
>  <STRUCTURE>
CCCCCCCCCCCC

>  <mass density, kg/m3>
745.29

$$$$
>  <STRUCTURE>
COCCOC

>  <mass density, kg/m3>
861.17

$$$$

As a next step, examine the compound that follows.
Bench note: what mass density did CCCCCCCC show?
698.58
